# TEST TARGET: UniProt:P11388
# Sequence (P11388 whole entry): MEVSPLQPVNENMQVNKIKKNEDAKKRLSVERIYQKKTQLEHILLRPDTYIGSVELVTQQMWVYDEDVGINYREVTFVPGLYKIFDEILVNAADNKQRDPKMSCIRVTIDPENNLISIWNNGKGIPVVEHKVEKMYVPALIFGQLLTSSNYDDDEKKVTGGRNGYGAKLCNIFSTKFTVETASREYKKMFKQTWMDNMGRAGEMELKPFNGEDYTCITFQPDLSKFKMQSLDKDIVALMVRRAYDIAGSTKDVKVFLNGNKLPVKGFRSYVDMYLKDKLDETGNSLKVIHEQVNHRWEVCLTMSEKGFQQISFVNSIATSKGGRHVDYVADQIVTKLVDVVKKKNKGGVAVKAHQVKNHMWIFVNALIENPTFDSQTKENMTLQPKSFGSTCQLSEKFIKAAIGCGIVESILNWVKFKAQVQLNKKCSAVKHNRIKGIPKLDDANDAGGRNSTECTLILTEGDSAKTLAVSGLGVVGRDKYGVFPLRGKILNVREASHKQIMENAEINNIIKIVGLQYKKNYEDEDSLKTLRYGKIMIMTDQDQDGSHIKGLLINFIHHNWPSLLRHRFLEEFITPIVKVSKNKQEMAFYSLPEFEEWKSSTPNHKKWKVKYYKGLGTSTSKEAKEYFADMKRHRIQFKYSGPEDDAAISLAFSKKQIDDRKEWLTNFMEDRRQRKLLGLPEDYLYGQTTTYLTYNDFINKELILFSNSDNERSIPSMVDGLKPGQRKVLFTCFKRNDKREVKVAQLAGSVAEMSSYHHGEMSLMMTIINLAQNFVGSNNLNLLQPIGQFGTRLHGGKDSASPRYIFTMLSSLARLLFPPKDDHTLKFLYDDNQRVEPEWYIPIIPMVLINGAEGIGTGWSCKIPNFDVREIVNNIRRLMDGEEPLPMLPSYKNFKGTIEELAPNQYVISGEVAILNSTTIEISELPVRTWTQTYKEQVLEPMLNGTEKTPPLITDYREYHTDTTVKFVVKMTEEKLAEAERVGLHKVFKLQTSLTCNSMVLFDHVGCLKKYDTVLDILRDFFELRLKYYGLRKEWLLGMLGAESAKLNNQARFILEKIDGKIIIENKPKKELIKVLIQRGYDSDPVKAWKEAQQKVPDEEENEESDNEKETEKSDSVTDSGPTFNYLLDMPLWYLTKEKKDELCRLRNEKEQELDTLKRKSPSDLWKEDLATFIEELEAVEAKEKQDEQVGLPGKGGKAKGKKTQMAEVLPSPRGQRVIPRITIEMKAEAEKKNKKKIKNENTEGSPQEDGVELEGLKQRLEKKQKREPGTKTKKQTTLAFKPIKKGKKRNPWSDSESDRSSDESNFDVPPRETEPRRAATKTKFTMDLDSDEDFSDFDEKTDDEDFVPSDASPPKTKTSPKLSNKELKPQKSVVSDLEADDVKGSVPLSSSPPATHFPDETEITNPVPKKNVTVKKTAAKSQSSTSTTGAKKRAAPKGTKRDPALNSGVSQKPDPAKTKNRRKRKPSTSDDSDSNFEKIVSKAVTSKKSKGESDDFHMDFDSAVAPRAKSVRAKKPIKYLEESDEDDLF
MEASURED PROPERTY: IC50 (nM)

NCCCCNCC(O)COc1cc(O)c2c(=O)c3ccccc3oc2c1 (stereo unspecified)
2500
